These entries and their values trace back to patent US20100168105A1.

- systemUnderTest: human histamine H3 receptors (full-length H3, isoform 445) (Homo sapiens, UniProt Q9Y5N1);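 note: scintillation counts read after the 1.5 hr incubation at room temperature with shaking, Imetit serving as reference control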
- Sequence (Q9Y5N1 whole entry, canonical isoform): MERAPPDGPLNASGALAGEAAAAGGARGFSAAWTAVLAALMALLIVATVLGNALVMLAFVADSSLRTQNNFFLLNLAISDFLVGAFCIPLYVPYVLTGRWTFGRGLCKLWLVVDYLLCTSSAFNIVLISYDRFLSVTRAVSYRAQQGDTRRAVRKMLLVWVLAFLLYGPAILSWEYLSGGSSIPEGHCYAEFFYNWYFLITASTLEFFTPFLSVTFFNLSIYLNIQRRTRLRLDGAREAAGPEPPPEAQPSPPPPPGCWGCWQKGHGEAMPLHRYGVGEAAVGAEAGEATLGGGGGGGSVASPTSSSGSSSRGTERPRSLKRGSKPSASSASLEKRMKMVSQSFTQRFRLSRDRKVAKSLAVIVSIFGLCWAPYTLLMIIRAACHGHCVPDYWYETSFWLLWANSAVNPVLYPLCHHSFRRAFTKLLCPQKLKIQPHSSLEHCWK
- protocolConditions: hH3 binding IC50 (nM), inhibition of 1.4 nM [3H]-N-α-methylhistamine binding to CHO-K1 membranes expressing human H3, SPA, 1.5 hr
propertyMeasured: IC50 (nM)
Answers are plain numbers, in nM.

As a guide, the following entries are already answered.
compound	IC50 (nM)
O=C(C1CC12CCN(C1CCC1)CC2)N1CCN(C2CCOCC2)CC1 (stereo not shown)	209
O=C(C1CC12CCN(Cc1ccccc1)CC2)N1CCN(C2CCCCC2)CC1 (stereo not shown)	306
O=C(C1CC12CCN(c1ccc3c(c1)OCO3)CC2)N1CCN(C2CCCCC2)CC1 (stereo not shown)	5170
CCC(CC)CN1CCC2(CC1)CC2C(=O)N1CCN(C)CC1 (stereo not shown)	1000

Batch: IC50 for all items listed.
1. O=C(C1CC12CCN(C1CCCOC1)CC2)N1CCN(C2CCC2)CC1 (stereo not shown)
2. O=C(C1CC12CCN(C1CCOCC1)CC2)N1CCN(CC2CCCCC2)CC1 (stereo not shown)

1: 15; 2: 390

Batch: IC50 for all items listed.
1. O=C(C1CC12CCN(C1CCOCC1)CC2)N1CCN(C2CCCCCC2)CC1 (stereo not shown)
2. O=C(C1CC12CCN(CCc1ccccc1)CC2)N1CCN(C2CCCCC2)CC1 (single isomer, unassigned) [Example 17]

1. 196
2. 27.4

Batch: IC50 for all items listed.
1. CNC(=O)CN1CCC2(CC1)CC2C(=O)N1CCN(C2CCC2)CC1 (stereo not shown)
2. CC(C)(C)OC(=O)CN1CCC2(CC1)CC2C(=O)N1CCN(C2CCC2)CC1 (stereo not shown)
3. O=C(C1CC12CCN(C1CCOC1)CC2)N1CCN(C2CCC2)CC1 (stereo not shown)

1: 207; 2: 182; 3: 35.1

Batch: IC50 for all items listed.
1. O=C(C1CC12CCN(CCc1ccccc1)CC2)N1CCN(C2CCCCC2)CC1 (single isomer, unassigned) [Example 18]
2. O=C(C1CC12CCN(CCOCc1ccccc1)CC2)N1CCN(C2CCCCC2)CC1 (stereo not shown)
3. COc1ccc(N2CCC3(CC2)CC3C(=O)N2CCN(C3CCC3)CC2)cc1 (stereo not shown)
4. O=C(C1CC12CCN(c1ccncc1)CC2)N1CCN(C2CCCCC2)CC1 (stereo not shown)
5. Cc1ccc(N2CCC3(CC2)CC3C(=O)N2CCN(C3CCC3)CC2)cc1 (stereo not shown)
6. O=C(C1CC12CCN(C1CCCCC1)CC2)N1CCN(C2CCC2)CC1 (stereo not shown) [Example 31]

[407, 419, 361, 165, 791, 11.3]

Batch: IC50 for all items listed.
1. O=C(C1CC12CCN(C1CCOCC1)CC2)N1CCN(C2CCCC2)CC1 (stereo not shown)
2. CN1CCC(N2CCC3(CC2)CC3C(=O)N2CCN(C)CC2)CC1 (stereo not shown)

1. 4.43
2. 1300
